Measured %Inh, listed per entry for reference.
tested on: RSK4(Kin.Dom.1-N-terminal); construct: gene RPS6KA6; conditions: concentration: 1 μM, replicates: in singlicate; n = 1;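 also: KINOMEscan kinase panel screen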

[
  {
    "Molecule": "Cc1ccc(NC(=O)c2cccc(N3CCCCC3)c2)cc1-c1ccc(C(=O)NCC2CC2)cc1 [GSK1917008]",
    "%Inh (%)": 0
  },
  {
    "Molecule": "O=C(O)C(F)(F)F.O=c1[nH]ccc2nc(N[C@@H]3CCNC3)nc(Nc3ccc4c(c3)S(=O)(=O)CC4)c12 [GSK2181306]",
    "%Inh (%)": 97.8
  },
  {
    "Molecule": "CC(=O)Nc1cn2nc(Oc3cccc(NC(=O)c4cccc(C(F)(F)F)c4)c3)ccc2n1",
    "%Inh (%)": 0
  },
  {
    "Molecule": "CN(C)CCNS(=O)(=O)c1ccc(-c2ccnc3[nH]ccc23)cc1 [GSK977620]",
    "%Inh (%)": 25
  },
  {
    "Molecule": "CC(C)(C)c1ccc(C(=O)Nc2cn3cc(-n4ccnc4)ccc3n2)cc1",
    "%Inh (%)": 29
  },
  {
    "Molecule": "Cc1cc(-c2c(-c3ccc(F)cc3)ncn2CCCN2CCOCC2)nc(N)n1 [SB-222517]",
    "%Inh (%)": 20
  },
  {
    "Molecule": "COc1cc(Nc2nccc(N3CCC(NS(=O)(=O)c4ccc(NC(C)=O)cc4)CC3)n2)cc(OC)c1OC [GSK1379825]",
    "%Inh (%)": 0
  },
  {
    "Molecule": "Nc1ncnc2scc(-c3ccc(NC(=O)Cc4cc(F)ccc4F)cc3)c12.O=C(O)C(F)(F)F [SB-731254-M]",
    "%Inh (%)": 17
  },
  {
    "Molecule": "O=C(O)C(F)(F)F.O=c1[nH]ccc2nc(N[C@@H]3CCNC3)nc(Nc3cc(Cl)cc(Cl)c3)c12 [GSK2188764]",
    "%Inh (%)": 96.3
  },
  {
    "Molecule": "COC(=O)Nc1nc2ccc(Oc3ccc(NC(=O)Nc4cc(C(F)(F)F)ccc4F)cc3)cc2[nH]1.Cl [GW654607]",
    "%Inh (%)": 0
  },
  {
    "Molecule": "Cc1cccc(Nc2nc(NCCN)ncc2C(N)=O)c1 [GSK1292139]",
    "%Inh (%)": 21
  },
  {
    "Molecule": "COc1ccc(C2=C(Nc3cccc(O)c3)C(=O)NC2=O)cc1 [SB-390766]",
    "%Inh (%)": 0
  },
  {
    "Molecule": "Fc1cc(Cl)ccc1Nc1ccnc2cc(-c3ccc(CN4CCOCC4)o3)ccc12 [GW560109]",
    "%Inh (%)": 0
  },
  {
    "Molecule": "CC(C)c1nc(-c2cccc(NS(=O)(=O)c3c(F)cccc3F)c2)c(-c2ccnc(Nc3ccc(N4CCOCC4)nc3)n2)s1.Cl [GSK1723980]",
    "%Inh (%)": 0
  },
  {
    "Molecule": "O=C(Nc1c(F)cccc1F)c1cc(C(=O)c2ccccc2F)c[nH]1 [GSK1326180]",
    "%Inh (%)": 1
  }
]

Ref: paper PMC5540273
